- test summary: TOX21_p53_BLA_p2_viability: Viability Assessment in the Tox21 HCT-116 p53 Agonism Beta-lactamase Assay, Phase 2 (AID 2283591);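 further: compound exposure lasted 16 h at 37 °C; actives lower the ATP signal meaning cytotoxicity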
Records with an inconclusive call do not appear. The source made the active and inactive calls. How the source made its calls: active means hit-call score of the fitted dose curve at least 0.9, where 1 is the maximum; inconclusive means response in the unintended direction; inactive means score below 0.9.
Select the correct class. Options are active, inactive and nothing else.

# compound, answer label
data = [
    ("ClCc1cccnc1", "inactive"),
    ("Cc1ccccc1N", "inactive"),
    ("NNC(=S)NN", "inactive"),
    ("CC(C)OC(=S)S", "inactive"),
]

q: Look up the recorded call for Cl/C=C\C[N+]12CN3CN(CN(C3)C1)C2 in this test.
a: inactive

q: I'd appreciate the recorded outcome for COc1ccc(C=O)cc1 from this test.
a: inactive

q: What call does the record list for CCN1CCC2(CC1)COc1cc3c(cc12)N(C(=O)c1ccc(-c2ccc(-c4nnc(C)o4)cc2C)cc1)CC3 ?
a: active

q: Just curious, what result did O=C(OC1CCCCC1)c1ccccc1C(=O)OC1CCCCC1 get here?
a: inactive

q: State the result this test recorded for CCCCCCCCc1ccc(O)cc1 .
a: inactive

q: What is the recorded call for this compound in the test? Cn1sc(Cl)cc1=O
a: inactive

###

- Read-out: Cyclin D2 (CCND2), CCND2 (gene 894)
- test summary: LTEA_HepaRG_CCND2: Life Technologies and Expression Analysis (LTEA) Assay for Cyclin D2 (CCND2) using HepaRG (AID 2283449);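 further: CCND2 transcript measured by TaqMan qRT-PCR and normalised to three housekeeping genes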
- condition label: mRNA level, 48 h; actives raise or lower the signal
The source made the active and inactive calls. The calls were made as follows: active = hit-call score of the fitted dose curve at least 0.9, where 1 is the maximum; inactive = score below 0.9.
Respond using exactly one of the listed classes: active, inactive

Completed entries (count: 5):
# compound, answer label
records = [
    ("CCN1CCC2(CC1)COc1cc3c(cc12)N(C(=O)c1ccc(-c2ccc(-c4nnc(C)o4)cc2C)cc1)CC3", "active"),
    ("Cc1ccccc1N", "inactive"),
    ("CC(C)(c1ccccc1)c1ccc(O)c(C(C)(C)c2ccccc2)c1", "inactive"),
    ("CCOP(=S)(OCC)SCSP(=S)(OCC)OCC", "inactive"),
    ("Cn1sc(Cl)cc1=O", "inactive"),
]

q: Hi team, can someone confirm the assay call for Oc1cccc2cccnc12 ?
a: inactive

q: Recorded test call requested for ClCC(Cl)CCl
a: inactive

q: Assay outcome for O=C(O)C(Cl)(Cl)Cl : what was it?
a: inactive

q: Would you mind telling me which call this test gave O=C(O)C(F)(F)C(F)(F)C(F)(F)C(F)(F)C(F)(F)C(F)(F)F ?
a: inactive

q: Just curious, what result did O=[N+]([O-])c1ccc(O)c([N+](=O)[O-])c1 get here?
a: inactive

###

- measured on: Nuclear receptor subfamily 1 group I member 2 (Homo sapiens)
- test summary: ATG_PXR_TRANS: Attagene TRANS-FACTORIAL HepG2 Assay for human Pregnane X Receptor (PXR) (AID 2283008)
Inconclusive results are not listed. Calls of active or inactive are those of the source. Rule for the calls: active = hit-call score of the fitted dose curve at least 0.9, where 1 is the maximum; inconclusive = response in the unintended direction; inactive = score below 0.9.
measured quantity: AC50

Consider the reported AC50 for these compounds:
# compound, measured on, AC50
rows = [
    ("CCOC(=O)CP(=O)(OCC)OCC", "Nuclear receptor subfamily 1 group I member 2 (Homo sapiens)", "inactive"),
    ("CC(C)C1CCC(Cc2ccc(Cl)cc2)C1(O)Cn1cncn1 (stereo unspecified)", "Nuclear receptor subfamily 1 group I member 2 (Homo sapiens)", "1.79 µM (active)"),
    ("COc1cc2c(cc1OC)[C@@]13CCN4CC5=CCO[C@H]6CC(=O)N2[C@H]1[C@H]6[C@H]5C[C@H]43", "Nuclear receptor subfamily 1 group I member 2 (Homo sapiens)", "inactive"),
    ("CC(C)(C)c1cc(O)ccc1O", "Nuclear receptor subfamily 1 group I member 2 (Homo sapiens)", "3.34 µM (active)"),
]

Hi team, please reply with AC50 for each item in this list.
1. N#CCc1ccc(Cl)cc1
2. C[C@]12CC[C@H](O)CC1=CC[C@@H]1[C@@H]2CC[C@]2(C)C(=O)CC[C@@H]12

a:
["inactive", "27.5 µM (active)"]

###

- test summary: BSK_BE3C_SRB: Viability Assessment in the BioMAP Diversity Plus: BE3C Assay (AID 2283028)
- condition label: primary human bronchial epithelial cells
- Description: BSK_BE3C is a cell-based, multiplexed-readout assay that uses bronchial epithelial cell, a human lung primary cell, with measurements taken at 24 hours after chemical dosing in a 96-well plate.BSK_BE3C_SRB is an assay component measured in the BSK_BE3C assay. It measures 0.1% sulforhodamine related to cell death using Sulforhodamine staining technology.Data from the assay component BSK_BE3C_SRB was analyzed into 1 assay endpoint. […]
The source made the active and inactive calls. Rule for the calls: active = hit-call score of the fitted dose curve at least 0.9, where 1 is the maximum; inactive = score below 0.9.
The reply should name one outcome from yes (active), no (inactive)

# compound, answer label
records = [
    ("O=C1C2(Cl)C3(Cl)C4(Cl)C(Cl)(Cl)C5(Cl)C3(Cl)C1(Cl)C5(Cl)C24Cl (configuration not stated)", "yes"),
    ("NC(=O)O", "no"),
    ("Nc1ccc(-c2ccc(N)c(Cl)c2)cc1Cl", "no"),
    ("C[C@]12CCC(=O)C[C@@H]1CC[C@@H]1[C@@H]2CC[C@]2(C)[C@@H](O)CC[C@@H]12", "no"),
    ("Nc1ncc([N+](=O)[O-])s1", "no"),
    ("Nc1cccc2ccccc12", "no"),
]

q: Lab log entry: COP(=S)(OC)Oc1ccc(S(=O)(=O)N(C)C)cc1 — outcome as called in the assay?
a: no

###

- test summary: ATG_DR4_LXR_CIS: Attagene CIS-FACTORIAL HepG2 Assay for human Liver X Receptor (LXR), DR4 submotif (AID 2282929)
- condition label: HepG2 Attagene DR4 cis-reporter, mRNA transcription; actives raise or lower the signal
Active and inactive are the calls of the source. How the source made its calls: active means hit-call score of the fitted dose curve at least 0.9, where 1 is the maximum; inactive means score below 0.9.
Classes to choose from: active, inactive

Look over these answered cases.
# smiles input, answer label
measured = [
    ("Nc1ncc([N+](=O)[O-])s1", "inactive"),
    ("CCN1CCC2(CC1)COc1cc3c(cc12)N(C(=O)c1ccc(-c2ccc(-c4nnc(C)o4)cc2C)cc1)CC3", "inactive"),
    ("C(=NC1CCCCC1)=NC1CCCCC1", "active"),
    ("Nc1ccc(Cl)cc1C(=O)c1ccccc1", "active"),
    ("CCCCOCCOC(C)=O", "inactive"),
]

q: Entry CCOP(=O)(CN(CCO)CCO)OCC : call = ?
a: inactive

q: Test call for this compound, please: COc1cc(OC)nc(NC(=O)NS(=O)(=O)c2ncccc2C(=O)N(C)C)n1
a: inactive

###

- measured on: human Opioid Receptor Delta 1 (Opiate D1), OPRD1 (gene 4985)
- test summary: NVS_GPCR_hOpiate_D1: NovaScreen (NVS) G Protein-Coupled Receptor Assay for human Opioid Receptor Delta 1 (Opiate D1) (AID 2283280)
Results filed as inconclusive are left out. Calls of active or inactive are those of the source. The calls were made as follows: active = hit-call score of the fitted dose curve at least 0.9, where 1 is the maximum; inconclusive = response in the unintended direction; inactive = score below 0.9.
measured quantity: AC50

Solved entries (count: 3):
# smiles input, measured quantity, observed
data = [
    ("O=C(O)C(F)(F)C(F)(F)C(F)(F)C(F)(F)C(F)(F)C(F)(F)C(F)(F)C(F)(F)C(F)(F)C(F)(F)F", "AC50", "10.7 µM (active)"),
    ("CC(=O)[O][Hg][c]1ccccc1", "AC50", "0.848 µM (active)"),
    ("CC(C)(C)CC(C)(C)c1ccc(O)cc1", "AC50", "8.28 µM (active)"),
]

Turning to the following compound.
q: Report value only: AC50, human Opioid Receptor Delta 1 (Opiate D1), OPRD1 (gene 4985), C=C(C)C(=O)[O][Sn]([CH2]CCC)([CH2]CCC)[CH2]CCC
a: 0.761 µM (active)

###

- measured on: Cellular tumor antigen p53 (Homo sapiens) (UniProt P04637)
- Sequence (P04637 whole entry, looked up): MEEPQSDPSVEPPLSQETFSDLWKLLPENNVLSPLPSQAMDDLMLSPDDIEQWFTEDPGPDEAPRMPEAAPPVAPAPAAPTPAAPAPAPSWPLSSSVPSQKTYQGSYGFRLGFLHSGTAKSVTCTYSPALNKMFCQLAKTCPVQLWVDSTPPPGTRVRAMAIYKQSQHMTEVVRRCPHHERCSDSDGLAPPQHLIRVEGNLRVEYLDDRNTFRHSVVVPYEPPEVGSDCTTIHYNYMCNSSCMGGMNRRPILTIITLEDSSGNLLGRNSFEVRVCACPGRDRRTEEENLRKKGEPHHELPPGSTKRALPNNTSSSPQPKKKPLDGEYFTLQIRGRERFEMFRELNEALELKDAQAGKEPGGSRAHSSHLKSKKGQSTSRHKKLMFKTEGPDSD
- test summary: TOX21_p53_BLA_p5_ratio: Tox21 HCT-116 p53 Agonism Beta-lactamase Assay, Ratio, Phase 5 (AID 2283599)
Records with an inconclusive call do not appear. Activity calls are given as the source filed them. Rule for the calls: active = hit-call score of the fitted dose curve at least 0.9, where 1 is the maximum; inconclusive = response in the unintended direction; inactive = score below 0.9.
Hello, when you answer, please use one of the following outcomes: active, inactive

Examples from the recorded data:
# compound, measured on, answer label
measured = [
    ("CCC[CH2][Sn]([CH2]CCC)([CH2]CCC)[O]C(=O)c1ccccc1", "Cellular tumor antigen p53 (Homo sapiens) (UniProt P04637)", "active"),
    ("C(=NC1CCCCC1)=NC1CCCCC1", "Cellular tumor antigen p53 (Homo sapiens) (UniProt P04637)", "inactive"),
    ("CCOP(=S)(OCC)Oc1nc(Cl)c(Cl)cc1Cl", "Cellular tumor antigen p53 (Homo sapiens) (UniProt P04637)", "inactive"),
    ("COP(=O)(OC)OC", "Cellular tumor antigen p53 (Homo sapiens) (UniProt P04637)", "inactive"),
    ("COP(=S)(OC)Oc1cc(Cl)c(Cl)cc1Cl", "Cellular tumor antigen p53 (Homo sapiens) (UniProt P04637)", "inactive"),
    ("CNC", "Cellular tumor antigen p53 (Homo sapiens) (UniProt P04637)", "inactive"),
    ("O=C(O)C(F)(F)C(F)(F)C(F)(F)C(F)(F)C(F)(F)C(F)(F)C(F)(F)C(F)(F)C(F)(F)C(F)(F)F", "Cellular tumor antigen p53 (Homo sapiens) (UniProt P04637)", "inactive"),
    ("Nc1ncc([N+](=O)[O-])s1", "Cellular tumor antigen p53 (Homo sapiens) (UniProt P04637)", "inactive"),
]

q: Recorded call for c1ccc(N=NNc2ccccc2)cc1 ?
a: inactive

q: How did this test come out for CC(C)c1ccc(CO)cc1 ?
a: inactive

q: How was C[C@@H]1C[C@@H]([C@H](O)CC2CC(=O)NC(=O)C2)C(=O)[C@@H](C)C1 classified in this test?
a: inactive

q: # fetch the recorded call for N#CN=C(N)N here
a: inactive

q: What did this assay record as the result for CC(Br)C(=O)O (stereo not drawn) ?
a: inactive
